Tested on: M14
measurement protocol: NCI tumour cell line growth inhibition, 48 h
Active and inactive are the calls of the source. Cut-off read from the data, not from the text of the source: active = GI50 up to about 1.1 µM and inactive = higher. Where a SMILES comes first, the peptide text is derived from it. The star is where a group is joined. Boc = CC(C)(C)OC(=O)*
# GI50 values compiled below

Below are worked cases with known answers.
COc1ccc(/C=N/N=C(\N)NO)cc1F
14.2 µM (inactive)
CC(C)(C)OC(=O)NCC(=O)NCC(=O)NCC(=O)NCC(=O)O (Boc-GGGG-OH)
> 100 µM (inactive)
O=C(Cc1ccc2ccccc2c1)NCc1ccc(C(=O)NCCc2ccccc2)cc1
> 100 µM (inactive)
N=C1N=C(N)c2cc3c(cc21)SCCSCCCSCCS3
16.6 µM (inactive)
CS(=O)(=O)N(CCC#N)c1ccc(/C=C2\N=C(c3ccccc3Cl)OC2=O)cc1
> 100 µM (inactive)
COC(=O)c1ccccc1/C=C1\Cc2c(ccc3c2CCC3)C1=O
> 100 µM (inactive)
O=[N+]([O-])c1ccc2c(c1)nc1n2C(c2c(F)cccc2F)SC1 (stereo not drawn)
> 100 µM (inactive)
Cc1nc2ccccc2c(=O)n1-c1ccccc1I
> 100 µM (inactive)

// query Endpoint output: GI50 of `C1=C(c2ccccc2)CN(c2ccccc2)OC1` . Value?
// result 83.8 µM (inactive)

// query What value of measured GI50 is listed for `Cc1nc2ccccc2c(=O)[nH]1` ?
// result > 100 µM (inactive)

// query For the compound shown here, [N-]=[N+]=CC(=O)C1CCN(c2ccccc2)C1=O (stereo not drawn) , give the reported GI50.
// result > 10 µM (inactive)

// query GI50 lookup needed for COC12C=CC(CC1)C(C)(C)C2OS(C)(=O)=O (stereo not drawn) , thanks.
// result > 100 µM (inactive)

// query Fill in: GI50 of `c1ccc2c3c([nH]c2c1)C1(CCCCC1)c1c([nH]c2ccccc12)C31CCCCC1` is ___
// result 30 µM (inactive)
